// provenance: patent US4298734A

# System: methacholine-induced bronchospasm in the rat
# Assay Method Text: Methacholine-induced bronchospasm (pulmonary ventilation pressure) in anesthetized rat
# Type: in vivo
# Test Context: intraduodenal, 50% inhibition of bronchospasm
Would you please tag the item true when its Methacholine Bronchospasm, ED50 is 4 mg/kg or above, and false when it is below?

Would you please look over these solved cases?
Compound	Qualitative Label
CC1N=C2N(Cc3ccc(Cl)cc3)c3nc[nH]c3C(=O)N2C1C (stereo not drawn) [106(trans)]	true
CC1CN2C(=O)c3[nH]cnc3N(Cc3ccc(Cl)cc3)C2=N1 (racemic) [Procedure 100]	false
CC1CN2C(=O)c3c(ncn3C)N(Cc3ccc(Cl)cc3)C2=N1 (racemic) [Procedure 102]	false
CC1N=C2N(Cc3ccc(Cl)cc3)c3nc[nH]c3C(=O)N2C1C (mixture of isomers) [106(mixed)]	false
Cn1cnc2c1C(=O)N1CCN=C1N2Cc1ccc(Cl)cc1 [Procedure 67]	true
Cc1nc2c([nH]1)C(=O)N1CC(C)N=C1N2Cc1ccc(Cl)cc1 (racemic) [Procedure 101]	false
O=c1c2[nH]cnc2n(Cc2ccc(Cl)cc2)c2nccn12 [Procedure 124]	true

Incoming: API: above_or_equal(metric=Methacholine Bronchospasm, ED50, cutoff=4 mg/kg) for item CC1N=C2N(Cc3ccc(Cl)cc3)c3nc[nH]c3C(=O)N2C1C (stereo not drawn) [106(cis)]
Outgoing: false
